# Measured target: T1, P8SH
# T1 chain: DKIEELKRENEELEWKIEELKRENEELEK
# Assay comment: two-hybrid library CCNG1;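 note: natural log of median RNA to DNA barcode read ratio; higher means stronger binding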
Recorded interaction score values for a group of binders are listed next.
Form field (numeric): enter value without unit.

Worked set:
Binder: DKIEELKRKIEELKWENEELERENEELER [P4SH]
interaction score: -0.776
//
Binder: DKNEELKREIKELEWENEELERKIEELKR [P6SH]
interaction score: 0.565
//
Binder: DKIEELKRENEELEWKIEELKRENEELEK [P8SH]
interaction score: -0.00526

Query string: For DEIKELEWKNEELKREIKELEEKNEELKR [P7SH] , write its interaction score.
Result string: 2.08

Query string: For DENEKLEEKIWELKRKNEELKREIKELEE [P5SH] , write its interaction score.
Result string: 0.809

Query string: For DEIKELEEEIKELEWKNEELKRKNEELKR [P3SH] , write its interaction score.
Result string: 0.525
